System: Env of MuLV
Experiment: cell-based or functional assay
# neutralization IC50 annotations

Worked cases, neutralization IC50 given:
Binder	Measured endpoint	Measurement
γ44κ11 (antibody, V domains shown) VH: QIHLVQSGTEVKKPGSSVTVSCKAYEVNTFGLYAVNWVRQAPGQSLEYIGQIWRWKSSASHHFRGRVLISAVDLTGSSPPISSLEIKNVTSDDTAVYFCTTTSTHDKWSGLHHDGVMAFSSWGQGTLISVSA VL: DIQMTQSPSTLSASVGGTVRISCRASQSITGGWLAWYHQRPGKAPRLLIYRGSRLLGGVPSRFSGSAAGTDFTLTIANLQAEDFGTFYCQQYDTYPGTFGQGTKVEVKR	neutralization IC50	> 19 µg/mL
γ59κ5 (antibody, V domains shown) VH: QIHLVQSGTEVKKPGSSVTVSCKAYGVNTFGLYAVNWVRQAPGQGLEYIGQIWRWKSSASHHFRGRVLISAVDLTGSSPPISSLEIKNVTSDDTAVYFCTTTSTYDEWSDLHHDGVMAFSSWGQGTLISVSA VL: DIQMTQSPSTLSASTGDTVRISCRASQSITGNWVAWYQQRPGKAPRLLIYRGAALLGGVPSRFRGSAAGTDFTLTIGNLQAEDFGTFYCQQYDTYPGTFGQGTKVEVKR	neutralization IC50	> 30 µg/mL
γ3κ5 (antibody, V domains shown) VH: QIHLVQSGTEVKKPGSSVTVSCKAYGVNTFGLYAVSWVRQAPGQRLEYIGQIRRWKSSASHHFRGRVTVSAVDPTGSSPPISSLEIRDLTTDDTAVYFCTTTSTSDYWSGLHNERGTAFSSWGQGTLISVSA VL: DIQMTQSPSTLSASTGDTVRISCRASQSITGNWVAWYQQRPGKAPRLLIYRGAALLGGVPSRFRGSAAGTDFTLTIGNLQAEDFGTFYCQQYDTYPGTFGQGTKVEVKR	neutralization IC50	> 15 µg/mL
8ANC195 IgG (antibody, V domains shown) VH: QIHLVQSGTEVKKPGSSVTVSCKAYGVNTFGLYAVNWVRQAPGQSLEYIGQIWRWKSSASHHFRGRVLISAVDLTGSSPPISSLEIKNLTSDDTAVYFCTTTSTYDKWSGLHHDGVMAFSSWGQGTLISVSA VL: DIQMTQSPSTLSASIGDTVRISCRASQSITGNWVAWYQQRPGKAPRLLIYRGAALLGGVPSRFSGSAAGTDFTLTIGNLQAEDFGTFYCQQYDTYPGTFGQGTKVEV	neutralization IC50	> 23 µg/mL
8ANC3040 (antibody, V domains shown) VH: QIHLVQSGTEVKKPGSSVTVSCKAYGVNTFGLYAVNWVRQAPGQSLEYIGQIWRWKSSASHHFRGRVLISAVDLTGSSPPISSLEIKNLTSDDTAVYFCTTTSTYDQWSGLHHDGVMAFSSWGQGTLISVSA VL: DIQMTQSPSTLSASIGDTVRISCRASQSITGNWVAWYQQRPGKAPRLLIYRGAALLGGVPSRFSGSAAGTDFTLTIGNLQAEDFGTFYCQQYDTYPGTFGQGTKVEVKR	neutralization IC50	> 30 µg/mL
γ46κ18 (antibody, V domains shown) VH: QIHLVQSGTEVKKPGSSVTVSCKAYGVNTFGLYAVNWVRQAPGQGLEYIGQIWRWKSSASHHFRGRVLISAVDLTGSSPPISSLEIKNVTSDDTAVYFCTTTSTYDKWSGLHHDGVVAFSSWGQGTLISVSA VL: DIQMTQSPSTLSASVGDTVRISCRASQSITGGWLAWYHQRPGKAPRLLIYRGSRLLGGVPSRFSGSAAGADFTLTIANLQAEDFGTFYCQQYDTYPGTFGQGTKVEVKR	neutralization IC50	> 15 µg/mL
γ59κ11 (antibody, V domains shown) VH: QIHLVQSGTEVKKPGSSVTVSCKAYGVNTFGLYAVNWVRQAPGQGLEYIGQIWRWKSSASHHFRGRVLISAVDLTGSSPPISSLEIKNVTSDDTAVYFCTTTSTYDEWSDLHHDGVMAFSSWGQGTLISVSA VL: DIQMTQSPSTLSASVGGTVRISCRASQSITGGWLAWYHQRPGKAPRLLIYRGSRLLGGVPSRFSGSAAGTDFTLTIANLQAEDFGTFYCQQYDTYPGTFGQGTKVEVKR	neutralization IC50	> 30 µg/mL
γ15κ61 (antibody, V domains shown) VH: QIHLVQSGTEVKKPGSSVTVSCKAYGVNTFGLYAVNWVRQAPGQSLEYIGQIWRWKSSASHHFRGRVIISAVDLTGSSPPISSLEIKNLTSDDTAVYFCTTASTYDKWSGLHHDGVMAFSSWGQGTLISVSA VL: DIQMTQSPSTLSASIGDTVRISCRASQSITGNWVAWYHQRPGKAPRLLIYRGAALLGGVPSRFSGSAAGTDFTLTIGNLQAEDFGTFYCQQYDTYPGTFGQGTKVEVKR	neutralization IC50	> 15 µg/mL
γ4κ18 (antibody, V domains shown) VH: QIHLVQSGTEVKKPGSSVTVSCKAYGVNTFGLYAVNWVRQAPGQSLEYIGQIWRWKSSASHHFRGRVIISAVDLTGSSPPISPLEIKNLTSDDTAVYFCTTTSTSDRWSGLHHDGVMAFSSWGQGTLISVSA VL: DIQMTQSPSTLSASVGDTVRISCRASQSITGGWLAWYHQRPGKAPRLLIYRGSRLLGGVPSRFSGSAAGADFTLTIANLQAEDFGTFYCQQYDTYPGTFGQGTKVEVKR	neutralization IC50	> 30 µg/mL

With those in mind, consider the next binder.
response.value for γ20κ3 (antibody, V domains shown) VH: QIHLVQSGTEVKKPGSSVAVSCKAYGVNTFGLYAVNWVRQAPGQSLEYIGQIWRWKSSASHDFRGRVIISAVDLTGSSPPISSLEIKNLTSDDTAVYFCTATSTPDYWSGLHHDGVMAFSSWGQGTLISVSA VL: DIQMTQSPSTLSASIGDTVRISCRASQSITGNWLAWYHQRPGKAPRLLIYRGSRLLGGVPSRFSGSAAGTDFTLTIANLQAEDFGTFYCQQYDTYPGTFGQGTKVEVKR (field: neutralization IC50) = > 21 µg/mL
